target: PD-1 (human, UniProt Q15116 25-167, limits assumed); assay: HTRF
Sequence (Q15116 25-167 limits assumed): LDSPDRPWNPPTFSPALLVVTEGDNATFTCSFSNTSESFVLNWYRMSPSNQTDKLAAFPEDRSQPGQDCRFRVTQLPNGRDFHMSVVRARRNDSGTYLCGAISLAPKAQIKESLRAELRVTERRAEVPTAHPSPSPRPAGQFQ
Readout name: PD1 Binding
// no unit, no text: just the number

Req: If you can, please state the reported PD1 Binding value of PD1-IL2-R02-B07 (scFv) QVQLVQSGAEVKKPGASVKVSCKASGDTFTRHYVHWVRQAPGQGLEWMGIINPSGGYASYAQKFQGRVTMTRDTSTSTVYMELSSLRSEDTAVYYCAAGLFIWGQGTLVTVSSASGGGGSGGGGSGGGGSHASDIQMTQSPSSLSASVGDRVTITCRASQSIGRWLAWYQQKPGKAPKLLIYSASNLETGVPSRFSGSGSGTDFTLTISSLQPEDFATYYCQQANSFPVTFGPGTKVDIK .
Resp: 1680
